Value source: ChEMBL document CHEMBL3091455

- Species: Rattus norvegicus
- Test name: Effect on electron transport protein complex 2 in Wistar-Han rat liver mitochondria using succinate as substrate assessed as ADP-induced depolarization at 3 ug/mg relative to control
Readout label: Activity

// field: Activity; key: C=C(C[n+]1ccc(N(C)C)cc1)[C@@H]1CC[C@]2(C(=O)O)CC[C@]3(C)[C@H](CC[C@@H]4[C@@]5(C)CC[C@H](O)C(C)(C)[C@@H]5CC[C@]43C)[C@@H]12.[Br-] ; value = 22.4%

Note to self: Activity recorded for C=C(C)[C@@H]1CC[C@]2(COC(=O)C[n+]3ccc(N(C)C)cc3)CC[C@]3(C)[C@H](CC[C@@H]4[C@@]5(C)CC[C@H](OC(=O)C[n+]6ccc(N(C)C)cc6)C(C)(C)[C@@H]5CC[C@]43C)[C@@H]12.[Br-].[Br-] was 30.6%

# Activity of C=C(C[n+]1ccc(N(C)C)cc1)[C@@H]1CC[C@]2(COC(=O)C[n+]3ccc(N(C)C)cc3)CC[C@]3(C)[C@H](CC[C@@H]4[C@@]5(C)CC[C@H](OC(=O)C[n+]6ccc(N(C)C)cc6)C(C)(C)[C@@H]5CC[C@]43C)[C@@H]12.[Br-].[Br-].[Br-] = 30.3%

Noted for C=C(C)[C@@H]1CC[C@]2(COC(=O)C[n+]3ccc(N(C)C)cc3)CC[C@]3(C)[C@H](CC[C@@H]4[C@@]5(C)CC[C@H](O)C(C)(C)[C@@H]5CC[C@]43C)[C@@H]12 : its Activity reads 28.5%

Activity in this record for C=C(C)[C@@H]1CC[C@]2(CO)CC[C@]3(C)[C@H](CC[C@@H]4[C@@]5(C)CC[C@H](OC(=O)C[n+]6ccc(N(C)C)cc6)C(C)(C)[C@@H]5CC[C@]43C)[C@@H]12.[Cl-] : 36.2%

====

Assign Activity to each entry below.
- Organism: Rattus norvegicus
- Test name: Effect on electron transport protein complex 2 in Wistar-Han rat liver mitochondria using succinate as substrate assessed as mitochondrial transmembrane electric potential at 6 ug/mg relative to control
Give your result in mV as a bare value.

The reported Activity of the compound C=C(C)[C@@H]1CC[C@]2(CO)CC[C@]3(C)[C@H](CC[C@@H]4[C@@]5(C)CC[C@H](OC(=O)C[n+]6ccc(N(C)C)cc6)C(C)(C)[C@@H]5CC[C@]43C)[C@@H]12.[Cl-] was 228

Record summary for C=C(C)[C@@H]1CC[C@]2(COC(=O)C[n+]3ccc(N(C)C)cc3)CC[C@]3(C)[C@H](CC[C@@H]4[C@@]5(C)CC[C@H](O)C(C)(C)[C@@H]5CC[C@]43C)[C@@H]12 : reported Activity = 224

Activity recorded for this compound, C=C(C[n+]1ccc(N(C)C)cc1)[C@@H]1CC[C@]2(COC(=O)C[n+]3ccc(N(C)C)cc3)CC[C@]3(C)[C@H](CC[C@@H]4[C@@]5(C)CC[C@H](OC(=O)C[n+]6ccc(N(C)C)cc6)C(C)(C)[C@@H]5CC[C@]43C)[C@@H]12.[Br-].[Br-].[Br-] , is 228

The compound C=C(C[n+]1ccc(N(C)C)cc1)[C@@H]1CC[C@]2(C(=O)O)CC[C@]3(C)[C@H](CC[C@@H]4[C@@]5(C)CC[C@H](O)C(C)(C)[C@@H]5CC[C@]43C)[C@@H]12.[Br-] showed Activity equal to 228

Given item C=C(C)[C@@H]1CC[C@]2(COC(=O)C[n+]3ccc(N(C)C)cc3)CC[C@]3(C)[C@H](CC[C@@H]4[C@@]5(C)CC[C@H](OC(=O)C[n+]6ccc(N(C)C)cc6)C(C)(C)[C@@H]5CC[C@]43C)[C@@H]12.[Br-].[Br-] , the value recorded as its Activity is 229
